Hey, just so you know, these numbers are from ChEMBL document CHEMBL1687929.

tested_on: CYP17 (steroid 17-alpha-hydroxylase/17,20 lyase) (Homo sapiens)
Sequence (P05093 whole entry): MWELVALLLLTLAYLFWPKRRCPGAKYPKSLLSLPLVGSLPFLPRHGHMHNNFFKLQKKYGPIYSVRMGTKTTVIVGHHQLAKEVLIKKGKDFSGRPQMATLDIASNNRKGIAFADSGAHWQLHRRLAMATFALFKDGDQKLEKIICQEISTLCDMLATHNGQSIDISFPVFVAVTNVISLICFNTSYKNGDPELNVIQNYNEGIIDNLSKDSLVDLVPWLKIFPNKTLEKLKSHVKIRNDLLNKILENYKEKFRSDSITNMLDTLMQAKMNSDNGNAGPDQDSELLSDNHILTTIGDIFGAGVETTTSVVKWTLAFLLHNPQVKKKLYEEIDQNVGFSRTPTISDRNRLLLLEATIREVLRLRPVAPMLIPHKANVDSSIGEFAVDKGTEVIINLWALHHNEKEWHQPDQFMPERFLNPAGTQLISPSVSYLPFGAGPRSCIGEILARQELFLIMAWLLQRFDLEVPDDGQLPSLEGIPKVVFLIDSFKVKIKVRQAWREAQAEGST
method_summary: in vitro
Property: inhibition at 2.5 µM; scope: individual molecules
The reply must contain the numeric value and, after it, the unit.

See these solved cases before continuing.
{"molecule": "COc1cccc(Oc2ccc3c(Cn4ccnc4)cc(=O)oc3c2)c1", "inhibition at 2.5 µM": "2%"}
{"molecule": "O=c1cc(Cn2ccnc2)c2ccc(OCc3ccc(Cl)cc3)cc2o1", "inhibition at 2.5 µM": "1%"}
{"molecule": "O=c1cc(Cn2ccnc2)c2ccc(Oc3ccc(Cl)cc3)cc2o1", "inhibition at 2.5 µM": "5%"}
{"molecule": "CC(=O)c1ccc(Oc2ccc3c(Cn4ccnc4)cc(=O)oc3c2)cc1", "inhibition at 2.5 µM": "4%"}
{"molecule": "O=c1cc(C(c2ccc(Cl)cc2)n2ccnc2)c2ccc(Oc3ccccc3)cc2o1 (racemic)", "inhibition at 2.5 µM": "5%"}
{"molecule": "O=c1cc(Cn2ccnc2)c2ccc(OCc3cccc(F)c3)cc2o1", "inhibition at 2.5 µM": "0%"}
{"molecule": "COc1ccc(COc2ccc3c(Cn4ccnc4)cc(=O)oc3c2)cc1", "inhibition at 2.5 µM": "0.5%"}

// below: inhibition at 2.5 µM requested for another molecule
Form: molecule = O=c1cc(Cn2ccnc2)c2ccc(OCc3ccc(OC(F)(F)F)cc3)cc2o1 ; inhibition at 2.5 µM = 0.5%
